These data points were gathered from the SangsterLogP compilation.

Experimental Protocol: method code SF-HPLC, from DOI: 10.1002/jps.2600840914, PMID: 8537890
Metric Name: logP

smiles_record=CCc1ssc(=S)c1C assay_result=2.95
smiles_record=S=c1ccss1 assay_result=1.58
smiles_record=CCCc1cssc1=S assay_result=3.18
smiles_record=S=c1cc(Cc2ccccc2)ss1 assay_result=3.43
smiles_record=Cc1ssc(=S)c1C assay_result=2.45
smiles_record=Cc1cc(=O)ss1 assay_result=1.26
smiles_record=CCc1cc(=O)ss1 assay_result=1.69
smiles_record=COc1ccc(-c2cc(=S)ss2)cc1 assay_result=3.82
smiles_record=Cc1ccc(-c2cssc2=S)cc1 assay_result=3.73
smiles_record=Cc1c(-c2ccccc2)ssc1=S assay_result=3.95
smiles_record=CCCc1cssc1=O assay_result=2.38
smiles_record=S=c1cc(-c2ccccc2)ss1 assay_result=3.67
smiles_record=S=c1ssc2c1CCC2 assay_result=2.53
smiles_record=Cc1ccc(-c2cc(=S)ss2)cc1 assay_result=4.26
smiles_record=Cc1ssc(=O)c1C assay_result=1.73
smiles_record=CCCc1cc(=O)ss1 assay_result=2.24
smiles_record=CCc1c(C)ssc1=S assay_result=2.94
smiles_record=Cc1cssc1=O assay_result=1.33
smiles_record=Cc1ssc(=S)c1-c1ccccc1 assay_result=3.17
smiles_record=CCCCCc1cssc1=S assay_result=4.06
smiles_record=CCc1ssc(=S)c1-c1ccccc1 assay_result=3.52
smiles_record=CCc1cc(=S)ss1 assay_result=2.31
smiles_record=S=c1ssc2ccccc12 assay_result=3.57
smiles_record=CCCCc1cssc1=S assay_result=3.7
smiles_record=S=c1sscc1-c1ccccc1 assay_result=3.2
smiles_record=CCCc1ssc(=S)c1C assay_result=3.42
smiles_record=Cc1cssc1=S assay_result=2.18
smiles_record=CCCc1c(C)ssc1=S assay_result=3.39
smiles_record=Cc1cc(=S)ss1 assay_result=1.87
smiles_record=CCc1ssc(=S)c1CC assay_result=3.51
smiles_record=S=c1ssc2c1CCCCC2 assay_result=3.27
smiles_record=CCc1cssc1=S assay_result=2.67
smiles_record=COc1ccc(-c2ssc(=S)c2C)cc1 assay_result=4.1
smiles_record=CCCc1ssc(=S)c1CC assay_result=3.76
smiles_record=S=c1ssc2c1CCCCCC2 assay_result=3.75
smiles_record=Cc1ssc(=S)c1Cc1ccccc1 assay_result=3.78
smiles_record=CCCc1cc(=S)ss1 assay_result=2.83
